Origin of values: paper PMC9301920

- measurement.notes: In vivo zebrafish kinetics of BPZ (water exposure, organ concentrations by LC-MS/MS)
- Design: species or system zebrafish (Danio rerio)
- measurement.parameters: female, zebrafish, brain, other: water exposure, 10 µg/L, female zebrafish, 480 h (one outlier fish removed); read-out: Mean concentration, brain
measurement.name: concentration at 480 h (ng/g)
Please respond with the number in ng/g and leave the unit unwritten.

Quick one: concentration at 480 h for Oc1ccc(C2(c3ccc(O)cc3)CCCCC2)cc1 [BPZ, bisphenol Z] ? 61.4

====

- measurement.notes: In vivo zebrafish kinetics of BPZ (water exposure, organ concentrations by LC-MS/MS)
- Parameters: species or system zebrafish (Danio rerio)
- measurement.parameters: female, zebrafish, whole body, other: exposure via tank water, 10 μg/L (nominal water concentration), female zebrafish, 504 h (depuration phase); read-out: Mean concentration, whole body (calculated)
measurement.name: concentration at 504 h (ng/g)
Please respond with the number in ng/g and leave the unit unwritten.

Quick one: concentration at 504 h for Oc1ccc(C2(c3ccc(O)cc3)CCCCC2)cc1 ? 14.5

====

- measurement.notes: In vivo zebrafish kinetics of BPZ (water exposure, organ concentrations by LC-MS/MS)
- Parameters: species or system zebrafish (Danio rerio)
- measurement.parameters: female, zebrafish, carcass, other: exposure via tank water, 10 μg/L (nominal water concentration), female zebrafish, 480 h (one outlier fish removed); read-out: Mean concentration, carcass
- Description: At sampling, adult fish were euthanized by immersion in a sodium bicarbonate-buffered tricaine methanesulfonate solution (MS222: 500 mg/L) and decapitated thereafter. […] 176The extracts were measured on a LC (ExionLC, Sciex) coupled with a Turbo V Ion source (ESI) […] 195plus the average blank value. The limit of quantification (LOQ) is defined as 3.3 * LOD value […] Detection and report limits (calculated on based of average sample intake)
measurement.name: concentration at 480 h
Phrase the answer as number then unit, nothing more needed.

Quick one: concentration at 480 h for Oc1ccc(C2(c3ccc(O)cc3)CCCCC2)cc1 [BPZ, bisphenol Z] ? 249 ng/g

====

- measurement.notes: In vivo zebrafish kinetics of BPZ (water exposure, organ concentrations by LC-MS/MS)
- Set-up: species or system zebrafish (Danio rerio)
- measurement.parameters: female, zebrafish, ovary, other: exposure via tank water, 10 μg/L (nominal water concentration), female zebrafish, 480 h (one outlier fish removed); read-out: Mean concentration, ovary
- Description: At sampling, adult fish were euthanized by immersion in a sodium bicarbonate-buffered tricaine methanesulfonate solution (MS222: 500 mg/L) and decapitated thereafter. […] 176The extracts were measured on a LC (ExionLC, Sciex) coupled with a Turbo V Ion source (ESI) […] 195plus the average blank value. The limit of quantification (LOQ) is defined as 3.3 * LOD value […] Detection and report limits (calculated on based of average sample intake)
measurement.name: concentration at 480 h (ng/g)
Please respond with the number in ng/g and leave the unit unwritten.

Quick one: concentration at 480 h for Oc1ccc(C2(c3ccc(O)cc3)CCCCC2)cc1 ? 69.3

====

- measurement.notes: In vivo zebrafish kinetics of BPZ (water exposure, organ concentrations by LC-MS/MS)
- Parameters: species or system zebrafish (Danio rerio)
- measurement.parameters: female, zebrafish, liver, other: exposure via tank water, 10 μg/L (nominal water concentration), female zebrafish, 492 h (depuration phase); read-out: Mean concentration, liver
measurement.name: concentration at 492 h (ng/g)
Please respond with the number in ng/g and leave the unit unwritten.

Quick one: concentration at 492 h for Oc1ccc(C2(c3ccc(O)cc3)CCCCC2)cc1 [BPZ, bisphenol Z] ? 11
